Entries and their 2D6*
Tested On: CYP450 2D6 (Homo sapiens)
Sequence (P10635 whole entry): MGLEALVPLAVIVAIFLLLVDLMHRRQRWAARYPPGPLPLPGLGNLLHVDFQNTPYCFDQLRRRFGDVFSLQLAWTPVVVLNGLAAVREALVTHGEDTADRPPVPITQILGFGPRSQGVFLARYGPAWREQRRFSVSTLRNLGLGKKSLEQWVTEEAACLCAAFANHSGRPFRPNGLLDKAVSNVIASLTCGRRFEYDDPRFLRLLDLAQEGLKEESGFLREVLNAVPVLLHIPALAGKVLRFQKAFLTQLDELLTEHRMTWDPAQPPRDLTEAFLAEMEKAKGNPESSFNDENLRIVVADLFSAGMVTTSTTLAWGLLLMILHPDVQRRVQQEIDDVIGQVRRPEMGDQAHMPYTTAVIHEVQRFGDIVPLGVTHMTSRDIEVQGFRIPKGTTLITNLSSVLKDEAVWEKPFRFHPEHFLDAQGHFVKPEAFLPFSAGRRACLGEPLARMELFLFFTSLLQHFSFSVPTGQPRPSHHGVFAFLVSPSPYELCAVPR
Test Details: CYP450 panel, 2D6
Condition Info: 10 μM; substrate dextromethophan
Metric Name: 2D6*

INSERT INTO results (compound, test_value) VALUES
  ('CNS(=O)(=O)Nc1cccc(Cc2c(CN3CCNCC3)c3ccc(OC(=O)N(C)C)cc3oc2=O)c1F [Compound 10]', '−3.4'),
  ('CNS(=O)(=O)Nc1cccc(Cc2c(CNc3ccn[nH]3)c3ccc(OC(=O)N(C)C)cc3oc2=O)c1F [Compound 12]', 4.5),
  ('CNS(=O)(=O)Nc1cccc(Cc2c(CN3CCN(Cc4ccccc4)CC3)c3ccc(OC(=O)N(C)C)cc3oc2=O)c1F [Compound 16]', 55.0),
  ('CNS(=O)(=O)Nc1nccc(Cc2c(C)c3ccc(Oc4ncccn4)cc3oc2=O)c1F [Reference 2, reference compound]', 3.4);

====

Test Details: Microsome stability, beagle dog
Type: in vitro ADME
Condition Info: microsomes, 2 μM
Entries and their Beagle Dog (% Reamining @1 hour)
Metric Name: Beagle Dog (% Reamining @1 hour) (%)

INSERT INTO measurements (molecule, metric_name, quantity_unit, test_value) VALUES
  ('C#CCNCc1c(Cc2cccc(NS(=O)(=O)NC)c2F)c(=O)oc2cc(OC(=O)N(C)C)ccc12', 'Beagle Dog (% Reamining @1 hour)', '%', 51.6),
  ('CNS(=O)(=O)Nc1cccc(Cc2c(CNc3ccn[nH]3)c3ccc(OC(=O)N(C)C)cc3oc2=O)c1F', 'Beagle Dog (% Reamining @1 hour)', '%', 42.8),
  ('Cn1cnc2c(F)c(Nc3ccc(Br)cc3Cl)c(C(=O)NOCCO)cc21 [Reference 1, Selumetinib, reference compound]', 'Beagle Dog (% Reamining @1 hour)', '%', 97.5),
  ('CNS(=O)(=O)Nc1cccc(Cc2c(CNC3CC3)c3ccc(OC(=O)N(C)C)cc3oc2=O)c1F', 'Beagle Dog (% Reamining @1 hour)', '%', 4.9),
  ('CNS(=O)(=O)Nc1cccc(Cc2c(CN3CCN(C)CC3)c3ccc(OC(=O)N(C)C)cc3oc2=O)c1F', 'Beagle Dog (% Reamining @1 hour)', '%', 46.0),
  ('CNS(=O)(=O)Nc1cccc(Cc2c(C)c3ccc(OC(=O)N(C)C)cc3oc2=O)c1F', 'Beagle Dog (% Reamining @1 hour)', '%', 57.0),
  ('CNS(=O)(=O)Nc1cccc(Cc2c(CNCC#N)c3ccc(OC(=O)N(C)C)cc3oc2=O)c1F', 'Beagle Dog (% Reamining @1 hour)', '%', 69.6);

====

Tested on: A549 pERK
Test Details: A549-pERK, 2 h (quantitative Western, Jess)
Format: cell-based
Condition Info: Homo sapiens, A549, 2 h, 10 nM, phospho:total ratio normalized to DMSO control
Metric Name: activity at 0.01 µM

INSERT INTO measurements (smiles_text, metric_name, test_value) VALUES
  ('CNS(=O)(=O)Nc1cccc(Cc2c(CN(C)CC#N)c3ccc(OC(=O)N(C)C)cc3oc2=O)c1F', 'activity at 0.01 µM', '63.8%'),
  ('CNS(=O)(=O)Nc1cccc(Cc2c(CNCC(=O)N3CCNCC3)c3ccc(OC(=O)N(C)C)cc3oc2=O)c1F', 'activity at 0.01 µM', '131%'),
  ('CNS(=O)(=O)Nc1cccc(Cc2c(CC(=O)NC3CCOCC3)c3ccc(OC(=O)N(C)C)cc3oc2=O)c1F', 'activity at 0.01 µM', '100%'),
  ('CNS(=O)(=O)Nc1nccc(Cc2c(C)c3cc(Cl)c(OC(=O)N(C)C)cc3oc2=O)c1F', 'activity at 0.01 µM', '4.63%'),
  ('CCS(=O)(=O)Nc1cccc(Cc2c(CN(C)C)c3ccc(OC(=O)N(C)C)cc3oc2=O)c1F', 'activity at 0.01 µM', '77.2%'),
  ('CCS(=O)(=O)Nc1nccc(Cc2c(C)c3ccc(OC(=O)N(C)C)cc3oc2=O)c1F', 'activity at 0.01 µM', '64.8%'),
  ('CNS(=O)(=O)Nc1cccc(Cc2c(CNC(=O)c3nn[nH]n3)c3ccc(OC(=O)N(C)C)cc3oc2=O)c1F', 'activity at 0.01 µM', '100%');

====

Entries and their activity at 0.01 µM
Tested on: A549 pERK
Test Details: A549-pERK, 2 h (quantitative Western, Jess)
Type: cell-based
Condition Info: Homo sapiens, A549, 2 h, 10 nM, phospho:total ratio normalized to DMSO control
Metric Name: activity at 0.01 µM (%)

INSERT INTO assay_data (smiles_text, test_value) VALUES
  ('CN(C)C(=O)Oc1ccc2c(CN3CCNCC3)c(Cc3ccnc(NS(=O)(=O)C4CC4)c3F)c(=O)oc2c1', 47.4),
  ('CNS(=O)(=O)Nc1cccc(Cc2c(CN(C)C3CC3)c3ccc(OC(=O)N(C)C)cc3oc2=O)c1F', 64.9),
  ('CNS(=O)(=O)Nc1cccc(Cc2c(CN(C)c3ccc(Cl)cc3)c3ccc(OC(=O)N(C)C)cc3oc2=O)c1F', 56.5),
  ('Cc1c(Cc2cccc(NS(=O)(=O)C(C)C)c2F)c(=O)oc2cc(OC(=O)N(C)C)ccc12', 13.5),
  ('CNS(=O)(=O)Nc1cccc(Cc2c(CNCC(=O)O)c3cc(Cl)c(OC(=O)N(C)C)cc3oc2=O)c1F', 88.1);

====

Entries and their 1A2*
Tested On: CYP450 1A2 (Homo sapiens, UniProt P05177)
Sequence (P05177 whole entry): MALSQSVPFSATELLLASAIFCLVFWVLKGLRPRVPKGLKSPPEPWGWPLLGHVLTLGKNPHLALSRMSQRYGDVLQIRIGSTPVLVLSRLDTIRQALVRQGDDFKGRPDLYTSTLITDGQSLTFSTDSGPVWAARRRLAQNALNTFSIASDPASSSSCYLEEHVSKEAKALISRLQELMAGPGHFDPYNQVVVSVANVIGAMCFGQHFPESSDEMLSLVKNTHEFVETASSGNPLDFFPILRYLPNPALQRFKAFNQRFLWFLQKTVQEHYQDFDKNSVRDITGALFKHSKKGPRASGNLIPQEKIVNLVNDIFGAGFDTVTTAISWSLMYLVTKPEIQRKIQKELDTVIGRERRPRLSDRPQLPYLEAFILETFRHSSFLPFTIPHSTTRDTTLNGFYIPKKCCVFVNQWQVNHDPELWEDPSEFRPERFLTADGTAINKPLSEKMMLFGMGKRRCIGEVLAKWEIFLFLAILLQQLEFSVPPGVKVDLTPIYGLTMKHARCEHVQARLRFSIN
Test Details: CYP450 panel, 1A2
Assay type: in vitro ADME
Condition Info: 10 μM; substrate phenacetin
Metric Name: 1A2*

INSERT INTO results (compound, metric_name, test_value) VALUES
  ('CNS(=O)(=O)Nc1cccc(Cc2c(CN3CCN(C)CC3)c3ccc(OC(=O)N(C)C)cc3oc2=O)c1F', '1A2*', 7.8),
  ('CNS(=O)(=O)Nc1cccc(Cc2c(CNC3CC3)c3ccc(OC(=O)N(C)C)cc3oc2=O)c1F', '1A2*', 6.9),
  ('Cn1cnc2c(F)c(Nc3ccc(Br)cc3Cl)c(C(=O)NOCCO)cc21 [Reference 1, Selumetinib, reference compound]', '1A2*', 8.3),
  ('CNS(=O)(=O)Nc1cccc(Cc2c(CN(C)C)c3ccc(OC(=O)N(C)C)cc3oc2=O)c1F', '1A2*', 4.8),
  ('C#CCNCc1c(Cc2cccc(NS(=O)(=O)NC)c2F)c(=O)oc2cc(OC(=O)N(C)C)ccc12', '1A2*', 6.3),
  ('CNS(=O)(=O)Nc1cccc(Cc2c(CN3CCN(Cc4ccccc4)CC3)c3ccc(OC(=O)N(C)C)cc3oc2=O)c1F', '1A2*', 6.9),
  ('CNS(=O)(=O)Nc1cccc(Cc2c(CNCC#N)c3ccc(OC(=O)N(C)C)cc3oc2=O)c1F', '1A2*', 6.5);

====

System: A549 pERK
Test Details: A549-pERK, 2 h (quantitative Western, Jess)
Format: cell-based
Condition Info: Homo sapiens, A549, 2 h, 10 nM, phospho:total ratio normalized to DMSO control
Threshold 50%: activity at 0.01 µM strictly smaller gives true (1), otherwise false (0).

INSERT INTO results (smiles_text, category) VALUES
  ('CNS(=O)(=O)Nc1cccc(Cc2c(CNCCC(F)(F)F)c3ccc(OC(=O)N(C)C)cc3oc2=O)c1F', 'false (0)'),
  ('C#CCNCCc1c(Cc2cccc(NS(=O)(=O)NC)c2F)c(=O)oc2cc(OC(=O)N(C)C)ccc12', 'true (1)'),
  ('CNS(=O)(=O)Nc1cccc(Cc2c(CN3CCN(C(C)C)CC3)c3ccc(OC(=O)N(C)C)cc3oc2=O)c1F', 'false (0)'),
  ('CCN1CCN(Cc2c(Cc3cccc(NS(=O)(=O)NC)c3F)c(=O)oc3cc(OC(=O)N(C)C)ccc23)CC1=O', 'false (0)'),
  ('CNS(=O)(=O)Nc1cccc(Cc2c(CN3CCN(S(C)(=O)=O)CC3)c3ccc(OC(=O)N(C)C)cc3oc2=O)c1F', 'false (0)'),
  ('Cc1c(Cc2cccc(NS(=O)(=O)C3CCC3)c2F)c(=O)oc2cc(OC(=O)N(C)C)ccc12', 'true (1)');

====

Test Details: Single dose PK profile (plasma and tumor) in Colon26 tumor bearing mice
Assay type: in vivo
Condition Info: female, mouse, po, 100 mg/kg; plasma; 100 mpk p.o.
Experimental: Female mice (either athymic BALC/c nude, or BALB/c mice) were inoculated with a single subcutaneous injection of 0.1 ml of mouse Colon-26 cell suspension (1×10^5 cells per animal) in the right flank region. […]
Metric Name: Cmax (ng/mL)

INSERT INTO results (compound, quantity_unit, test_value) VALUES
  ('CNS(=O)(=O)Nc1cccc(Cc2c(CN(C)C)c3ccc(OC(=O)N(C)C)cc3oc2=O)c1F [Compound 9]', 'ng/mL', 30100),
  ('CNS(=O)(=O)Nc1cccc(Cc2c(CN3CCC3)c3ccc(OC(=O)N(C)C)cc3oc2=O)c1F [Compound 197]', 'ng/mL', 14200);
